src = patent US20150239831A1

biological target: VIPR2 (Homo sapiens, UniProt P41587); assay: Inhibition of VIP-induced β-arrestin recruitment (% Activity Arrestin); type: cell-based; parameters: expressed in transfected cells; host or cells: HEK293 cells transfected with VIPR2 in pCDNA3.1 (as described); conditions: 1 μM, Batch 2
Sequence (P41587 24-438): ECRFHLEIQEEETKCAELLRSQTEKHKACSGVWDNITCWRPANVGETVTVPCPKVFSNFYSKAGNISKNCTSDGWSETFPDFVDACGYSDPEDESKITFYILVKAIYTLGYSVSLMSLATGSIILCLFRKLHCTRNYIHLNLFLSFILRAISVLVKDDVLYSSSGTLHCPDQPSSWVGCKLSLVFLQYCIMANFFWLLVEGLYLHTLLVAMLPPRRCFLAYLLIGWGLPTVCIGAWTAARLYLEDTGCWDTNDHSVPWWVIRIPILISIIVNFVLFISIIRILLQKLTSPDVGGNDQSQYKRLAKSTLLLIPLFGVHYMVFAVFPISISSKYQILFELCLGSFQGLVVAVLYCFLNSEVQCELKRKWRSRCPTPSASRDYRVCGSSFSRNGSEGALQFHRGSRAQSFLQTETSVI
Each entry below lists one item and its recorded inhibition at 1 µM value.

# COMPOUND, inhibition at 1 µM, %
measured = [
    ("CNC(=O)[C@H](Cc1ccccc1)C[C@H](O)CNS(=O)(=O)c1ccc([N+](=O)[O-])cc1 [Compound B20]", 4),
    ("CCN(CC)C(=O)[C@H](Cc1ccccc1)C[C@H](O)CNS(=O)(=O)c1ccc([N+](=O)[O-])cc1 [Compound B15A]", 7.9),
    ("O=C([C@H](Cc1ccccc1)C[C@H](O)CNS(=O)(=O)c1ccc([N+](=O)[O-])cc1)N1CCC(CO)CC1 [Compound B19]", -17.8),
    ("O=C(NC1CCCC1)[C@@H](Cc1ccccc1)C[C@H](O)CNS(=O)(=O)c1ccc([N+](=O)[O-])cc1 [Compound B1B]", -6.1),
    ("CCNC(=O)[C@H](Cc1ccccc1)C[C@H](O)CNS(=O)(=O)c1ccc([N+](=O)[O-])cc1 [Compound B16A]", 0.1),
    ("NC(=O)[C@@H](Cc1ccccc1)C[C@H](O)CNS(=O)(=O)c1ccc([N+](=O)[O-])cc1 [Compound B12B]", -9.8),
    ("O=C(N[C@H]1c2ccccc2C[C@H]1O)[C@H](Cc1ccccc1)C[C@H](O)CNS(=O)(=O)c1ccc([N+](=O)[O-])cc1 [Compound A27, reference compound]", 38.6),
    ("O=C(NC1Cc2ccccc2C1)[C@H](Cc1ccccc1)C[C@H](O)CNS(=O)(=O)c1ccc([N+](=O)[O-])cc1 [Compound B2A]", 8.1),
    ("O=C([C@H](Cc1ccccc1)C[C@H](O)CNS(=O)(=O)c1ccc([N+](=O)[O-])cc1)N1CCOCC1 [Compound B9A]", 8.9),
    ("O=C(NC1CCCC1)[C@H](Cc1ccccc1)C[C@H](O)CNS(=O)(=O)c1ccc([N+](=O)[O-])cc1 [Compound B1A]", 17.1),
    ("CCN(CC)C(=O)[C@@H](Cc1ccccc1)C[C@H](O)CNS(=O)(=O)c1ccc([N+](=O)[O-])cc1 [Compound B15B]", 1.2),
    ("O=C(NCc1ccccc1)[C@@H](Cc1ccccc1)C[C@H](O)CNS(=O)(=O)c1ccc([N+](=O)[O-])cc1 [Compound B3B]", -4.1),
    ("O=C(NN1CCCCC1)[C@@H](Cc1ccccc1)C[C@H](O)CNS(=O)(=O)c1ccc([N+](=O)[O-])cc1 [Compound B6B]", 3.3),
    ("C[C@H](CC(C)(C)C)NC(=O)[C@@H](Cc1ccccc1)C[C@H](O)CNS(=O)(=O)c1ccc([N+](=O)[O-])cc1 [Compound B10B]", 27.9),
    ("C#CCNC(=O)[C@@H](Cc1ccccc1)C[C@H](O)CNS(=O)(=O)c1ccc([N+](=O)[O-])cc1 [Compound B21B]", 3.4),
    ("CCNC(=O)[C@@H](Cc1ccccc1)C[C@H](O)CNS(=O)(=O)c1ccc([N+](=O)[O-])cc1 [Compound B16B]", 6),
    ("CCCCNC(=O)[C@H](Cc1ccccc1)C[C@H](O)CNS(=O)(=O)c1ccc([N+](=O)[O-])cc1 [Compound B7A]", 1.9),
    ("O=C(NCc1ccc(F)cc1F)[C@H](Cc1ccccc1)C[C@H](O)CNS(=O)(=O)c1ccc([N+](=O)[O-])cc1 [Compound B14A]", -13.3),
    ("CC1CCC(NC(=O)[C@H](Cc2ccccc2)C[C@H](O)CNS(=O)(=O)c2ccc([N+](=O)[O-])cc2)CC1 (some centres unmarked) [Compound B8A]", -1.3),
    ("O=C(NC1CCCCCC1)[C@H](Cc1ccccc1)C[C@H](O)CNS(=O)(=O)c1ccc([N+](=O)[O-])cc1 [Compound B5A]", -5.4),
]
